Could you please report measured pEC50 for the items listed next?
# Tested on: HCV replicon cells
# ASSAY INFO: HCV replicon FRET / luciferase assay
# Format: cell-based, Hepatitis C virus
# PROTOCOL CONDITIONS: HCV replicon cells, FRET or luciferase activity
# Protocol: The HCV FRET screening assay was performed in 96-well cell culture plates. The FRET peptide (Anaspec, Inc.) (Taliani et al., Anal. Biochem. 1996, 240, 60-67) contains a fluorescence donor, EDANS, near one end of the peptide and an acceptor, DABCYL, near the other end. […] Compound analysis was performed by quantification of the relative HCV replicon inhibition and the relative cytotoxicity values. […]
pEC50: −log10 of the molar value.

Given CCC(C)S(=O)(=O)NC(=O)c1ccc2c(C3CCCCC3)c3n(c2c1)C[C@@]1(C(=O)N2C4CCC2CN(C)C4)C[C@H]1c1cc(OC)ccc1-3 (stereo partly drawn) [drawing 133] , state its recorded pEC50.
6.30 to 9.00

Note, next up: COc1ccc2c(c1)C1CC1(C(=O)N1C3CCC1CN(C)C3)Cn1c-2c(C2CCCCC2)c2ccc(C(=O)NS(=O)(=O)N3C[C@@H](C)O[C@@H](C)C3)cc21 (stereo partly drawn) [drawing 107]
6.30 to 9.00

Note, next up: CNS(=O)(=O)NC(=O)c1ccc2c(C3CCCCC3)c3n(c2c1)CC1(C(=O)N2C4CCC2CN(C)C4)CC1c1cc(OC)ccc1-3 (stereo not drawn) [drawing 50]
6.30 to 9.00

* * *

# Test system: HCV replicon cells
# ASSAY INFO: HCV replicon FRET / luciferase assay
# Type: cell-based, Hepatitis C virus
# PROTOCOL CONDITIONS: Hepatitis C virus
ASSAY READOUT: EC50

Given COc1ccc2c(c1)C1CC1(C(=O)N1C3CCC1CN(C)C3)Cn1c-2c(C2CCCCC2)c2ccc(C(=O)NS(=O)(=O)N3CCCCC3)cc21 (stereo not shown) [drawing 95] , state its recorded EC50.
1 to 500 nM

Note, next up: COc1ccc2c(c1)C1CC1(C(=O)N1C3CCC1CN(C)C3)Cn1c-2c(C2CCCCC2)c2ccc(C(=O)NS(=O)(=O)N3CCC3)cc21 (stereo not shown) [drawing 101]
1 to 500 nM

Note, next up: COc1ccc2c(c1)C1CC1C(C(=O)N1C3CCC1CN(C)C3)n1c-2c(C2CCCCC2)c2ccc(C(=O)NS(=O)(=O)C3CC3)cc21 (stereo not shown) [drawing 100]
1 to 500 nM

Note, next up: CN1CC2CCC(C1)N2C(=O)C12CC1c1ccccc1-c1c(C3CCCCC3)c3ccc(C(=O)NS(=O)(=O)N(C)C)cc3n1C2 (stereo not shown)
1 to 500 nM

Note, next up: COc1ccc2c(c1)C1CC1(C(=O)N1C3CCC1CN(C)C3)Cn1c-2c(C2CCCCC2)c2ccc(C(=O)NS(=O)(=O)C(C)C)cc21 (stereo not shown)
1 to 500 nM

Note, next up: COc1ccc2c(c1)C1CC1(C(=O)N1[C@@H]3CC[C@H]1CN(C(=O)N(C)C)C3)Cn1c-2c(C2CCCCC2)c2ccc(C(=O)NS(=O)(=O)N(C)C)cc21 (stereo partly shown)
1 to 500 nM

Note, next up: COc1ccc2c(c1)C1CC1(C(=O)N1CC3CCC(C1)N3C)Cn1c-2c(C2CCCCC2)c2ccc(C(=O)NS(=O)(=O)N(C)C)cc21 (stereo not shown)
1 to 500 nM

Note, next up: COc1ccc2c(c1)C1CC1(C(=O)N1C3CCC1CN(C(C)=O)C3)Cn1c-2c(C2CCCCC2)c2ccc(C(=O)NS(=O)(=O)N(C)C)cc21 (stereo not shown) [drawing 35]
1 to 500 nM

Note, next up: COc1ccc2c(c1)C1CC1(C(=O)N1C3CCC1CNC3)Cn1c-2c(C2CCCCC2)c2ccc(C(=O)NS(=O)(=O)N(C)C)cc21 (stereo not shown) [drawing 34]
1 to 500 nM

Note, next up: COc1cccc2c1C1CC1(C(=O)N1C3CCC1CN(C)C3)Cn1c-2c(C2CCCCC2)c2ccc(C(=O)NS(=O)(=O)N(C)C)cc21 (stereo not shown)
> 500 nM

Note, next up: COc1ccc2c(c1)C1CC1(C(=O)N1C3CCC1CN(C(C)C)C3)Cn1c-2c(C2CCCCC2)c2ccc(C(=O)NS(=O)(=O)N(C)C)cc21 (stereo not shown) [drawing 37]
1 to 500 nM

Note, next up: COc1ccc2c(c1)C1CC1(C(=O)N1C3CCC1CN(C)C3)Cn1c-2c(C2CCCCC2)c2ccc(C(=O)NS(=O)(=O)N(C)C3CC3)cc21 (stereo not shown) [drawing 99]
1 to 500 nM

Note, next up: COc1ccc2c(c1)C1CC1(C(=O)N1[C@@H]3CC[C@H]1CN(S(C)(=O)=O)C3)Cn1c-2c(C2CCCCC2)c2ccc(C(=O)NS(=O)(=O)N(C)C)cc21 (stereo partly shown)
1 to 500 nM

Note, next up: COc1cccc2c1C1CC1(C(=O)N1C3CCC1CN(C)C3)Cn1c-2c(C2CCCCC2)c2ccc(C(=O)O)cc21 (stereo not shown)
1 to 500 nM

Note, next up: `COc1ccc2c(c1)[C@@H]1C[C@]1(C(=O)N1C3CCC1CN(C)C3)Cn1c-2c(C2CCCCC2)c2ccc(C(=O)NS(=O)(=O)C(C)C)cc21`
1 to 500 nM

Note, next up: CCN(CC)S(=O)(=O)NC(=O)c1ccc2c(C3CCCCC3)c3n(c2c1)CC1(C(=O)N2C4CCC2CN(C)C4)CC1c1cc(OC)ccc1-3 (stereo not shown) [drawing 97]
1 to 500 nM

Note, next up: COc1ccc2c(c1)C1CC1(C(=O)N1C3CCC1CN(C)C3)Cn1c-2c(C2CCCCC2)c2ccc(C(=O)NS(=O)(=O)C(F)(F)F)cc21 (stereo not shown)
1 to 500 nM

Note, next up: COc1ccc2c(c1)C1CC1(C(=O)N1CC3CCC(C1)N3C(C)C)Cn1c-2c(C2CCCCC2)c2ccc(C(=O)NS(=O)(=O)N(C)C)cc21 (stereo not shown)
1 to 500 nM

Note, next up: COc1ccc2c(c1)C1CC1(C(=O)NC1CC3CCC(C1)N3C)Cn1c-2c(C2CCCCC2)c2ccc(C(=O)NS(=O)(=O)N(C)C)cc21 (stereo not shown) [drawing 39]
1 to 500 nM

Note, next up: COc1ccc2c(c1)[C@@H]1CC1[C@@H](C(=O)N1C3CCC1CN(C)C3)n1c-2c(C2CCCCC2)c2ccc(C(=O)N(C)S(=O)(=O)N(C)C)cc21 (stereo partly shown)
> 40 nM

Note, next up: `COc1ccc2c(c1)[C@@H]1C[C@]1(C(=O)N1[C@@H]3CC[C@H]1CN(C(=O)N(C)C)C3)Cn1c-2c(C2CCCCC2)c2ccc(C(=O)NS(=O)(=O)N(C)C)cc21`
1 to 500 nM

Note, next up: CN1CC2CCC(C1)N2C(=O)C12CC1c1cc(OC(F)F)ccc1-c1c(C3CCCCC3)c3ccc(C(=O)NS(=O)(=O)N(C)C)cc3n1C2 (stereo not shown) [drawing 90]
1 to 500 nM

Note, next up: `CN1CC2CCC(C1)N2C(=O)C1=Cc2c(OC(F)(F)F)cccc2-c2c(C3CCCCC3)c3ccc(C(=O)NS(=O)(=O)N(C)C)cc3n2C1`
> 500 nM

Note, next up: COc1ccc2c(c1)C1CC1(C(=O)N1CC3CCC(C1)N3C(=O)OC(C)(C)C)Cn1c-2c(C2CCCCC2)c2ccc(C(=O)NS(=O)(=O)N(C)C)cc21 (stereo not shown)
1 to 500 nM

Note, next up: COc1ccc2c(c1)C1CC1(C(=O)N1C3CCC1CN(C)C3)Cn1c-2c(C2CCCCC2)c2ccc(C(=O)NS(=O)(=O)C3CCCC3)cc21 (stereo not shown)
1 to 500 nM
